TESTED TARGET: Flag/GST-tagged recombinant human B-Raf (Homo sapiens)
Construct: Flag; GST; made in house; host or cells: Sf9 insect cells (B-Raf); E. coli (MEK1-GST)
PROCEDURE DETAILS: B-Raf kinase assay (phosphorylation of GST-MEK1, phospho-MEK1 antibody/Europium detection)
Format: biochemical
TEST CONDITIONS: B-Raf IC50 Data for compounds of Formula A; read-out: Mean IC50
Procedure: B-Raf1 Kinase Assay Procedure: B-Raf-1 is used to phosphorylate GST-MEK1. • 1. Assay Dilution Buffer (ADB): 20 mM MOPS, pH 7.2, 25 mM β-glycerol phosphate, 5 mM EGTA, 1 mM sodium orthovanadate, 1 mM dithiothreitol, 0.01% Triton X-100. • 2. Magnesium/ATP Cocktail: ADB solution (minus Triton X-100) plus 200 μM cold ATP and 40 mM magnesium chloride. • 4. […] B-Raf Assay Procedure: • 1. […] Read plates in Wallac Victor model Plate Reader. • 13. The % inhibition was determined for each compound concentration.
pIC50: −log10 of the molar value.
READOUT: pIC50

Response field pIC50 (Flag/GST-tagged recombinant human B-Raf (Homo sapiens)) for item "Cc1cc(N2C[C@@H]3C[C@H]2CN3)ccc1-c1ccnc2c(-c3ccc(F)c4[nH]ncc34)c(-c3ccncc3)nn12" : > 9.52

Response field pIC50 (Flag/GST-tagged recombinant human B-Raf (Homo sapiens)) for item "COc1cc(-c2c(-c3ccncc3)nn3c(CN4C[C@@H]5C[C@H]4CN5C(=O)OC(C)(C)C)ccnc23)ccc1Cl" : < 7.00

Response field pIC50 (Flag/GST-tagged recombinant human B-Raf (Homo sapiens)) for item "Fc1cc(N2C[C@@H]3C[C@H]2CN3)cc(F)c1-c1ccnc2c(-c3cccc4[nH]ncc34)c(-c3ccncc3)nn12" : > 9.70

Response field pIC50 (Flag/GST-tagged recombinant human B-Raf (Homo sapiens)) for item "CN1C[C@@H]2C[C@H]1CN2c1cc(F)cc(F)c1-c1ccnc2c(-c3cccc4[nH]ncc34)c(-c3ccncc3)nn12" : < 7.00

Response field pIC50 (Flag/GST-tagged recombinant human B-Raf (Homo sapiens)) for item "CC(C)N1C[C@@H]2C[C@H]1CN2c1cc(F)c(-c2ccnc3c(-c4cccc5[nH]ncc45)c(-c4ccncc4)nn23)c(F)c1" : > 9.52

Response field pIC50 (Flag/GST-tagged recombinant human B-Raf (Homo sapiens)) for item "Fc1cc(N2C[C@@H]3C[C@H]2CN3)cc(F)c1-c1ccnc2c(-c3ccc(F)c4[nH]ncc34)c(-c3ccncc3)nn12" : > 9.52

###

TESTED TARGET: Flag/GST-tagged recombinant human B-Raf (Homo sapiens, UniProt P15056)
Construct: Flag; GST; made in house; host or cells: Sf9 insect cells (B-Raf); E. coli (MEK1-GST)
Sequence (P15056 whole entry): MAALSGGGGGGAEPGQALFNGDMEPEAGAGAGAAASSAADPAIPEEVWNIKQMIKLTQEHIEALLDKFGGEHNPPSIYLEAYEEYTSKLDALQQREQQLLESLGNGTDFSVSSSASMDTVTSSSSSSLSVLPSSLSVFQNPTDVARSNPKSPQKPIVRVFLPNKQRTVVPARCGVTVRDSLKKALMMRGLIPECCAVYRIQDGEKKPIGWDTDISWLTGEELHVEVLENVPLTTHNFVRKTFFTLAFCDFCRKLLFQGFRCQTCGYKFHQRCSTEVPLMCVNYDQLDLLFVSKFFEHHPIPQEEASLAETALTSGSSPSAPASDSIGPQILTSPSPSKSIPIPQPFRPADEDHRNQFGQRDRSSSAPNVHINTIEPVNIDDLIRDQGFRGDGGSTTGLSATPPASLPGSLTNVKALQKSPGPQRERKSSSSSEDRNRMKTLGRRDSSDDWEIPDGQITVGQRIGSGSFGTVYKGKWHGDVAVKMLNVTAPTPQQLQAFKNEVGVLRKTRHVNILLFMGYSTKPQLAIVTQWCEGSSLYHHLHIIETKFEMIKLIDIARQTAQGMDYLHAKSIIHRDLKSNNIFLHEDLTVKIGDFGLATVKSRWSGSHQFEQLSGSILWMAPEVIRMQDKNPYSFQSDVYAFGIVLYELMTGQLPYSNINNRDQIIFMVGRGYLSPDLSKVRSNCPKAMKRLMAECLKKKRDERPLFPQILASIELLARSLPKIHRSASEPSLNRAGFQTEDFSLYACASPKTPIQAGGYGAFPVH
PROCEDURE DETAILS: B-Raf kinase assay (phosphorylation of GST-MEK1, phospho-MEK1 antibody/Europium detection)
Assay type: biochemical
TEST CONDITIONS: B-Raf IC50 Data for compounds of Formula A; read-out: Mean IC50
READOUT: IC50

molecule "CN1C[C@@H]2C[C@H]1CN2c1ccc(-c2ccnc3c(-c4cccc(O)c4)c(-c4ccncc4)nn23)c(Cl)c1" , IC50 observed: < 0.3 nM

molecule "CC(C)(C)OC(=O)N1C[C@@H]2C[C@H]1CN2Cc1cccc(-c2ccnc3c(-c4cccc5[nH]ncc45)c(-c4ccncc4)nn23)c1" , IC50 observed: > 100 nM

molecule "Fc1cc(N2C[C@@H]3C[C@H]2CN3C2CCC2)cc(F)c1-c1ccnc2c(-c3cccc4[nH]ncc34)c(-c3ccncc3)nn12" , IC50 observed: < 0.3 nM

molecule "COc1cc(-c2c(-c3ccncc3)nn3c(-c4ccc(F)cc4N4C[C@@H]5C[C@H]4CN5C)ccnc23)ccc1Cl" , IC50 observed: > 1000 nM

molecule Fc1cc(N2C[C@@H]3C[C@H]2CN3)ccc1-c1ccnc2c(-c3cccc4[nH]ncc34)c(-c3ccncc3)nn12 [Example 52] , IC50 observed: < 0.3 nM

molecule Clc1cc(N2C[C@@H]3C[C@H]2CN3)ccc1-c1ccnc2c(-c3cccc4[nH]ncc34)c(-c3ccncc3)nn12 [Example 61] , IC50 observed: < 0.3 nM

molecule "Oc1cc(-c2c(-c3ccncc3)nn3c(-c4ccc(N5C[C@@H]6C[C@H]5CN6)cc4)ccnc23)ccc1F" , IC50 observed: < 0.3 nM
